All values here come from PubChem BioAssay AID687014.

- Tested on: Nuclear hormone receptor DAF-12 (Heterodera glycines), GAL4 fusion
- method: hgDAF-12 GAL4 fusion reporter activation – cell-based, luminescence, HEK293, UAS-luciferase, primary screen (AID 687014)
- recorded conditions: HEK293 GAL4-hgDAF12 UAS-luciferase reporter, agonist luminescence; at 6.8 µM
The campaign covered roughly 370,000 compounds. About 6,800 (1.8%) were called active.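 How the source made its calls: active means activation above a cutoff set at the mean of all screened compounds plus 3 SD (cut at about 10% in these data); inactive means the rest.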 What follows is part of a selection rich in actives, with near analogues and random picks from the rest.
Outcomes: yes for active, no for inactive

| molecule | qualitative label |
| --- | --- |
| Cc1ccccc1CCC[C@@H](CC1CCCCC1)CN(C)C(=O)Oc1ccccc1 | no |
| COP(=O)(Sc1ccccc1)C(Cc1ccccc1)NC(=O)OCc1ccccc1 (stereo not drawn) | no |
| COc1ccc2c(c1)[C@@]13CCCCC1[C@@H](C2)NCC3 (stereo partly drawn) | no |
| O=C(Nc1cccc(OC(=O)N2CCCCC2)c1)N1CCOCC1 | no |
| O=S(=O)(c1ccccc1)N1CCC2CCNC2C1 (stereo not drawn) | no |
| Clc1ccc([C@@H]2CC3CCC2N3)cn1 (stereo partly drawn) | no |
| CCCC[N+]1(C)C2CC(OC(=O)C(CO)c3ccccc3)CC1C1OC12 (stereo not drawn) | no |
| CS(=O)(=O)N1CCC2CCNC2C1 (stereo not drawn) | no |
| CC[N+](CC)(CC)CCCCCCCCCC[N+](CC)(CC)CC | no |
| O=C(N/N=C/c1c(O)n(C2CC2)c(=S)[nH]c1=O)c1ccccc1Cl | no |
| O=c1[nH]c(=O)n(CCc2ccccc2)c(O)c1/C=N/N1CCOCC1 | no |
| COc1cc(OC)cc(C(=O)NCCN2CCC3(CC2)C(=O)NCN3c2ccccc2)c1 | no |
| CC(C)(C)c1ccc(OC(=O)N2CCCCC2)cc1 | yes |
| COc1cc(C(c2c(O)c3ccccc3oc2=O)c2c(C)n(C)n(-c3ccccc3)c2=O)ccc1O (stereo not drawn) | no |
| CN1CCN(C(=O)COc2ccc(C(C)(C)C)cc2Br)CC1 | no |
| c1ccc2sc(N3CCNCC3)nc2c1 | no |
| NC(=O)Nc1cccc(C(F)(F)F)c1 | no |
| Brc1ccc2c(c1)CNCc1cnnn1-2 | no |
